All values here come from patent US5866717A.

Measurement Label: IC50 (nM)
Answer with a number only, understood to be in nM.

Request: # return IC50 of CNC(=O)[C@@H](NC(=O)[C@H](CC(C)C)C(CSc1cccs1)C(=O)NO)C(C)(C)C (stereo partly drawn) [Comparator 3, reference compound] (system: Stromelysin-1 (Homo sapiens, UniProt P08254))
Sequence (P08254 100-477, species assumed): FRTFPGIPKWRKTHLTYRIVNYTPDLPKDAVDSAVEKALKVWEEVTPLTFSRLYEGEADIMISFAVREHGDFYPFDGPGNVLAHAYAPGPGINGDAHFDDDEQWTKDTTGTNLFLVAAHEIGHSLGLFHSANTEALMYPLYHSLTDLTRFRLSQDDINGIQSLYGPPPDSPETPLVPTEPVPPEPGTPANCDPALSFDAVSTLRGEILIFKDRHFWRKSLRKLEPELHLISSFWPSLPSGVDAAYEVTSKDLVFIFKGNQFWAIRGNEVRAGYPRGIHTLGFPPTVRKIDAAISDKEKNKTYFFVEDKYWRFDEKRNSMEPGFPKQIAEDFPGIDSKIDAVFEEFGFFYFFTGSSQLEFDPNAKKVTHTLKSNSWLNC
Result: 40

Request: Provide Stromelysin-1 (Homo sapiens, UniProt P08254) IC50 reading for C=CC[C@H](C(=O)NO)[C@@H](CC(C)C)C(=O)N[C@H](C(=O)NCCOCCOC)C(C)(C)C .
Result: 40

Request: Fill in: IC50 on Stromelysin-1 (Homo sapiens, UniProt P08254), entry COCCOCOCCNC(=O)[C@@H](NC(=O)[C@H](CC(C)C)[C@H](O)C(=O)NO)C(C)(C)C
Result: 60
